system: HIV-1 LTR promoter (LTR-Luc); assay: Cell transfection assay, LTR-Luc plasmid in MT-2 cells; assay type: cell-based; settings: Human immunodeficiency virus 1, MT2, 48 h, read-out: EC50 of transfection, LTR
pEC50: −log10 of the molar value.
measure: pEC50

Ask | Given the molecule CN(C)CCOc1cc2c(c3ccccc13)-c1ccccc1C2=O , what is its reported pEC50?
Reply | 4.60 to 4.90

###

Tested on: HIV-1 LTR promoter (LTR-Luc)
Assay: Cell transfection assay, LTR-Luc plasmid in MT-2 cells
Assay type: cell-based
Details: Human immunodeficiency virus 1, MT2; MT-2 cells, LTR-Luc, 48 h; read-out: EC50 of transfection, LTR
Text: Cell Transfection Assays. MT-2 cells were transfected with plasmids containing a luciferase reporter gene the expression of which was under the control of the complete HIV-1 (NL4.3-luc) or HIV-1 LTR promoter (LTR-Luc). […]
measure: EC50

Ask | Recorded EC50 for Fc1nc(N2CCNCC2)c(F)c(Sc2ccc(Cl)cc2)c1F , please?
Reply | 4.4 µM
